Every entry's value here was drawn from PubChem BioAssay (NCI).

System: HOP-92 NSCLC
Assay Method Text: NCI tumour cell line growth inhibition, 48 h
Recorded Endpoint: log10 TGI (log10 of the value in µM)

# Compound, Assayed System, log10 TGI
measured = [
    ("COc1ccc(N2C(=O)C3c4[nH]c5ccc(OC)cc5c4C4CCC(C(C)(C)C)CC4C3C2=O)cc1 (stereo not given)", "HOP-92 NSCLC", 1.56),
    ("O=C(Nc1ccccc1O)c1cccc(NC2=C(Cl)C(=O)N(Cc3ccccc3)C2=O)c1", "HOP-92 NSCLC", 1.39),
    ("O=c1[nH]nc(Cc2ccccc2)n1/N=C/c1c(O)ccc2ccccc12", "HOP-92 NSCLC", 1.70),
    ("CC(C)(C)NCc1cc(Nc2ccnc3cc(Cl)ccc23)cc(-c2ccc(Cl)cc2)c1O", "HOP-92 NSCLC", 0.85),
    ("COC(=O)/C=C1/CCC2[C@@H](C(=O)CC3[C@]2(C)CCC[C@@]3(C)C(=O)OC)C1C (stereo not given in full)", "HOP-92 NSCLC", 1.26),
    ("Oc1ccccc1-c1nn(CNc2cccc(Cl)c2)c(=S)o1", "HOP-92 NSCLC", 1.50),
    ("COc1cc(O)cc(/C=C/c2ccc(O)cc2)c1", "HOP-92 NSCLC", 1.96),
    ("Cn1ccnc1C(=O)/C=C/c1ccc(C(=O)Nc2ccc(Cl)cc2)cc1", "HOP-92 NSCLC", 1.43),
    ("COc1ccc2c(c1)C(=O)/C(=C/c1cccc(OCC(=O)Nc3nc4c(s3)CCCC4)c1)O2", "HOP-92 NSCLC", -0.43),
    ("CCCCCCC(=O)OC[n+]1ccc2c(C)c3[nH]c4ccccc4c3c(C)c2c1", "HOP-92 NSCLC", 1.38),
    ("C=C1C(=O)O[C@@H]2[C@H]1C[C@@H](O)[C@H](C)[C@@](O)(C(=O)/C=C/C)[C@H]2OC(=O)C(C)CC (stereo not given in full)", "HOP-92 NSCLC", 0.99),
    ("CC1=CC(=NC(=O)CBr)C=C/C1=N\\S(=O)(=O)c1ccccc1", "HOP-92 NSCLC", 0.83),
    ("Cn1c2ccccc2c2c(-c3ccccc3)[n+]3ccccc3nc21", "HOP-92 NSCLC", 1.60),
]

---

Item-by-item account of TGI
Tested on: 786-0 renal
Assay Method Text: NCI tumour cell line growth inhibition, 48 h

# Compound, TGI
rows = [
    ("O=C(/C=C(\\O)c1ccc(Cl)cc1)C(=O)N=Nc1c(O)[nH]c2ccc(Br)cc12", "> 100 µM"),
    ("C/C(=N\\NS(=O)(=O)c1ccc(C)cc1)C(CN1CCOCC1)C(c1ccccc1)c1c(O)c2ccccc2oc1=O (stereo unspecified)", "> 100 µM"),
    ("O=c1cccccc1NCCOCCNc1cccccc1=O", "> 100 µM"),
    ("COc1ccc2c(c1)c(=O)c1ccccc1n2/C=C/C(=O)O", "> 100 µM"),
    ("O=C1CCCCC1CN1CCCC1 (stereo unspecified)", "> 100 µM"),
    ("CSc1c(C(=O)Nc2ccc(Cl)cc2)c(N)nn1-c1ccccc1", "> 43.2 µM"),
]

---

Test system: SK-MEL-5 melanoma
Assay Method Text: NCI tumour cell line growth inhibition, 48 h

# Molecule, TGI
measured = [
    ("CC1=C(C(=O)Nc2ccc(F)c(Cl)c2)C(c2ccccc2Cl)NC(=S)N1 (stereo unspecified)", "> 50 µM"),
    ("COc1cccc2c1CCc1ccccc1CC2=O", "> 100 µM"),
    ("CCOC(=O)c1cc2c(ccc3cc(C(=O)OCC)[nH]c32)[nH]1", "98.4 µM"),
    ("COc1cc(O)cc(/C=C/c2ccc(O)cc2)c1", "> 100 µM"),
    ("COC(=O)c1ccc(OCc2ccc3nc(OC)c(OC)nc3c2)cc1", "> 100 µM"),
    ("O=c1[nH]nc(Cc2ccccc2)n1/N=C/c1c(O)ccc2ccccc12", "48.7 µM"),
]

---

Item-by-item account of TGI
System: DMS 273 small cell lung
Assay Method Text: NCI tumour cell line growth inhibition, 48 h
Recorded Endpoint: TGI

# Molecule, Result
measured = [
    ("CCOC12OC3=C(CC1CC1=C(CCC1=O)O2)C(=O)CC3 (stereo unspecified)", "> 100 µM"),
    ("COc1ccc(C(=O)C(c2ccc(OC)cc2)C2(O)C(=O)Nc3ccccc32)cc1 (stereo unspecified)", "> 100 µM"),
    ("CNC(=O)CN(CC(=O)NC)C(=O)NC", "> 100 µM"),
    ("COc1cc(/C=C2/C(=O)N(C(=O)OC(C)C)C(Cc3cc(OC)c(OC)c(C)c3OC)C(=O)N2Cc2ccccc2)c(OC)c(C)c1OC (stereo unspecified)", "> 100 µM"),
    ("COc1c(Cl)c2c(c(OC)c1OC)-c1ccc(OC)c(=O)c(Cl)c1C(NC(C)=O)CC2 (stereo unspecified)", "> 100 µM"),
    ("[O-]c1c2c(nn1-c1ccccc1)c1ccccc1c[n+]2Cc1ccccc1", "> 100 µM"),
    ("CCC(C)(C)C(=O)O[C@H]1C[C@@H](C)C=C2C=C[C@H](C)[C@H](CC[C@@H]3C[C@@H](O)CC(=O)O3)[C@H]21", "> 30 µM"),
    ("COc1ccc(C(=O)OCC2OC(n3cnc4c(=S)nc[nH]c43)C(OC(=O)c3ccc(OC)cc3)C2OC(=O)c2ccc(OC)cc2)cc1 (stereo unspecified)", "> 100 µM"),
    ("COc1cccc2c1CCc1ccccc1CC2=O", "> 100 µM"),
    ("O=S1(=O)OCCOS(=O)(=O)C1I", "> 100 µM"),
    ("COC(=O)C1=C2CCC(=O)[C@@]2(C)C(OC(C)=O)C=CC1 (stereo partly specified)", "> 100 µM"),
    ("O=S(=O)(/C=C/c1ccc(Cl)cc1Cl)Cc1ccccc1CS(=O)(=O)/C=C/c1ccc(Cl)cc1Cl", "> 100 µM"),
    ("CCOC(=O)C12CCCC1(O)N(NC(=O)c1ccccc1)C(C)=C2C(=O)OC (stereo unspecified)", "> 100 µM"),
    ("CN1C(=O)c2ccccc2NC(=O)c2cnn(C)c21", "> 100 µM"),
    ("Cc1nc2c(n1CCO)C(=O)c1ccccc1C2=O", "70.2 µM"),
    ("C=C(C)C1CC=C(C)[C@](O)(C2(O)C[C@H](C(=C)C)CC=C2C)C1 (stereo partly specified)", "> 100 µM"),
    ("O=c1/c(=C/c2cccc([N+](=O)[O-])c2)sc2nc3ccccc3n12", "> 100 µM"),
    ("COC(=O)NC1C(C)OC(OC2C/C=C(/C)C3C=CC4C(OC5CC(OC6CC(O)C(OC7CC(O)C(OC)C(C)O7)C(C)O6)C(O)C(C)O5)C(C)CC(C)C4C3(C)/C(O)=C3\\C(=O)OC4(CC(C)C(CO)=CC4/C=C\\2C)C3=O)CC1(C)[N+](=O)[O-] (stereo unspecified)", "28.9 µM"),
    ("CC(=O)OC(/C=C1/C=CC(=O)O1)COC(=O)c1ccccc1 (stereo unspecified)", "> 31.2 µM"),
    ("COc1cc(/C=C2\\[C@H]3c4c(c(OC)c(C)c(OC)c4OC)C[C@@H](C(=O)N2Cc2ccccc2)N3C(=O)OCC(C)C)c(OC)c(C)c1OC", "> 100 µM"),
    ("COc1ccc(N2C(=O)C3c4[nH]c5ccccc5c4C4CCCCCCCCCCC4C3C2=O)cc1 (stereo unspecified)", "18.6 µM"),
]

---

Item-by-item account of TGI
Test system: HCT-116 colon
Assay Method Text: NCI tumour cell line growth inhibition, 48 h

# Compound, TGI
measured = [
    ("CC1=C(C(=O)Nc2ccc(F)c(Cl)c2)C(c2ccccc2Cl)NC(=S)N1 (stereo not given)", "> 50 µM"),
    ("O=c1c2cccc(Cl)c2sc2c(NCCCNCCO)nc3ccccc3c12", "3.13 µM"),
    ("CC(=O)OC(/C=C1/C=CC(=O)O1)COC(=O)c1ccccc1 (stereo not given)", "> 31.2 µM"),
    ("OC(c1nc2ccccc2s1)(C(F)(F)F)C(F)(F)F", "> 100 µM"),
    ("CC(=O)c1cccc(NC(=O)/C(=N\\NC(C)(C)C)c2c(O)c3ccccc3oc2=O)c1", "> 100 µM"),
    ("Cc1nc2c(n1CCO)C(=O)c1ccccc1C2=O", "43 µM"),
    ("CC(=O)Oc1ccc2c(c1)Oc1cc(C(C)=O)ccc1C21OC(=O)c2ccccc21 (stereo not given)", "> 100 µM"),
    ("Cc1cc2c(cc1Cl)SC1=CC(=O)N(c3ccccc3)C1=NS2(=O)=O", "> 100 µM"),
    ("C=C1C(=O)O[C@@H]2[C@H]1C[C@@H](O)[C@H](C)[C@@](O)(C(=O)/C=C/C)[C@H]2OC(=O)C(C)CC (stereo not given in full)", "3.58 µM"),
    ("COC(=O)/C=C1/CCC2[C@@H](C(=O)CC3[C@]2(C)CCC[C@@]3(C)C(=O)OC)C1C (stereo not given in full)", "19.1 µM"),
]
